- target entity: HLA-A*02:11
- assay text: IEDB peptide-MHC binding, purified MHC/competitive/fluorescence; filed as Kd, often an IC50 or EC50 that approximates it; bounds were set here for any values at or beyond the usual limits of such assays
- assay setup: source organism: Cryptosporidium parvum Iowa II
pKd: −log10 of the molar value.
measurement name: pKd

sequence_string=RGRKPIFRK result="≤ 4.70"

----------
- target entity: HLA-B*15:17
- assay text: IEDB peptide-MHC binding, purified MHC/direct/fluorescence; filed as Kd, often an IC50 or EC50 that approximates it; bounds were set here for any values at or beyond the usual limits of such assays
- assay setup: source organism: Bacillus anthracis
pKd: −log10 of the molar value.
measurement name: pKd

sequence_string=REFEAQNVP result="≤ 4.70"

----------
- target entity: HLA-B*54:01
- assay text: IEDB peptide-MHC binding, purified MHC/competitive/radioactivity; filed as Kd, often an IC50 or EC50 that approximates it; bounds were set here for any values at or beyond the usual limits of such assays
- assay setup: source organism: Vaccinia virus WR
pKd: −log10 of the molar value.
Property: pKd; scope: individual sequences
measurement name: pKd

sequence_string=EPISDYSAEV target_entity=HLA-B*54:01 prefix_operator== quantitative_result=7.33
sequence_string=PPLISILMI target_entity=HLA-B*54:01 prefix_operator== quantitative_result=5.06
sequence_string=EPEKDIRELL target_entity=HLA-B*54:01 prefix_operator=≤ quantitative_result=4.62
sequence_string=KPVIVPDIKL target_entity=HLA-B*54:01 prefix_operator== quantitative_result=5.42
sequence_string=AFEFINSLLK target_entity=HLA-B*54:01 prefix_operator=≤ quantitative_result=4.16
sequence_string=RPRVTKQYIV target_entity=HLA-B*54:01 prefix_operator== quantitative_result=6.97
sequence_string=NPNCLEWLRA target_entity=HLA-B*54:01 prefix_operator== quantitative_result=7.69

----------
- target entity: HLA-B*18:01
- assay text: IEDB peptide-MHC binding, purified MHC/direct/fluorescence; filed as Kd, often an IC50 or EC50 that approximates it; bounds were set here for any values at or beyond the usual limits of such assays
- assay setup: source organism: West Nile virus
measurement name: Kd

sequence_string=FVDVGVSAL target_entity=HLA-B*18:01 measurement_name=Kd result="≥ 20 µM"

----------
- target entity: HLA-B*18:01
- assay text: IEDB peptide-MHC binding, purified MHC/competitive/fluorescence; filed as Kd, often an IC50 or EC50 that approximates it; bounds were set here for any values at or beyond the usual limits of such assays
- assay setup: source organism: Araucaria virus
measurement name: Kd

sequence_string=FLAAECPFL measurement_name=Kd result="≥ 20 µM"

----------
- target entity: HLA-B*57:01
- assay text: IEDB peptide-MHC binding, purified MHC/competitive/fluorescence; filed as Kd, often an IC50 or EC50 that approximates it; bounds were set here for any values at or beyond the usual limits of such assays
- assay setup: source organism: Orthohantavirus sinnombreense
measurement name: Kd

sequence_string=YKSRCYVGL target_entity=HLA-B*57:01 result="≥ 20 µM"

----------
- target entity: HLA-B*08:01
- assay text: IEDB peptide-MHC binding, purified MHC/competitive/fluorescence; bounds were set here for any values at or beyond the usual limits of such assays
- assay setup: source organism: Zaire ebolavirus
pIC50: −log10 of the molar value.
measurement name: pIC50

sequence_string=IFRLMRTNF prefix_operator== quantitative_result=4.26
sequence_string=FPQLSAIAL prefix_operator=≤ quantitative_result=3.89

Entry source: the Immune Epitope Database (IEDB)
